Taken from paper PMC3971960.

Biological target: T1, BlaI (Staphylococcus aureus, UniProt P0A042 1-126)
T1 sequence: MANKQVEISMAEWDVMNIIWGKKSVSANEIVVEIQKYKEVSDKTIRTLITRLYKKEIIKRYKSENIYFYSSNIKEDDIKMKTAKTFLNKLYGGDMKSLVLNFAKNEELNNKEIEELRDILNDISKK
Assay: fluorescence anisotropy
pKd: −log10 of the molar value.
reported metric: pKd

INSERT INTO measurements (binder, measurement) VALUES
  ('mec dsDNA (mec operator) (dsDNA) DNA 1: ATATAAGACTACATTTGTAGTATATTACAAATGTAGTATTT DNA 2: AAATACTACATTTGTAATATACTACAAATGTAGTCTTATAT', 7.89);
